System: CAF#4 (primary prostate cancer-associated fibroblasts of iCAF-like type)
Assay: drug sensitivity score (DSS2, normalised partial AUC of dose-response, 72 h CellTiter-Glo viability) (DSS (dimensionless)); higher = more sensitive (stronger growth inhibition / cytotoxicity); extreme values may be limits of the assay
Label criterion met when drug sensitivity score is at or above 2; anything below gets criterion not met.

1) COc1cc([C@@H]2c3cc4c(cc3[C@@H](O[C@@H]3O[C@@H]5CO[C@@H](C)O[C@H]5[C@H](O)[C@H]3O)[C@H]3COC(=O)[C@H]23)OCO4)cc(OC)c1O [Etoposide] (tested concentration range 1-10000 nM)
criterion not met
2) O=C(Nc1ccc(OC(F)(F)Cl)cc1)c1cnc(N2CC[C@@H](O)C2)c(-c2cc[nH]n2)c1 [Asciminib] (tested concentration range 0.1-1000 nM)
criterion not met
3) COc1ccccc1S(=O)(=O)Nc1ccc2c(c1)CN(C)C(=O)N2 [PFI-1] (tested concentration range 3-30000 nM)
criterion not met
4) Nc1nc2cc(-c3ccc4ncc(C(=O)N5CCOCC5)n4c3)ccc2o1 [Serabelisib] (tested concentration range 1-10000 nM)
criterion met
5) Nc1nc(Nc2ccc3c(c2)CC[C@@H](N2CCCC2)CC3)nn1-c1cc2c(nn1)-c1ccccc1CCC2 [Bemcentinib] (tested concentration range 1-10000 nM)
criterion not met
6) C=CCc1cccc(/C=N/NC(=O)CN2CCN(Cc3ccccc3)CC2)c1O [PAC-1] (tested concentration range 1-10000 nM)
criterion not met
7) CN[C@@H](C)C(=O)N[C@H]1CN(C(=O)CC(C)C)CC[C@H]2CC[C@@H](C(=O)NC(c3ccccc3)c3ccccc3)N2C1=O [AT-406] (tested concentration range 1-10000 nM)
criterion not met
8) C=CC(=O)Nc1cc(Nc2nccc(-c3cn(C)c4ccccc34)n2)c(OC)cc1N(C)CCN(C)C [Osimertinib] (tested concentration range 0.2-2500 nM)
criterion met

Q) Hi, just wondering whether Cc1cnc(Nc2ccc(OCCN3CCCC3)cc2)nc1Nc1cccc(S(=O)(=O)NC(C)(C)C)c1 [Fedratinib] (tested concentration range 1-10000 nM) shows drug sensitivity score of 2 or higher.
A) criterion met

Q) Please tell me: is the molecule Cn1ncnc1[C@H]1c2n[nH]c(=O)c3cc(F)cc(c23)N[C@@H]1c1ccc(F)cc1 [Talazoparib] (tested concentration range 0.1-1000 nM) at or over 2 in terms of drug sensitivity score?
A) criterion met

----------
Listed below: drug sensitivity score values for each entry.
Test system: CAF#4
Assay: drug sensitivity score (DSS2, normalised partial AUC of dose-response, 72 h CellTiter-Glo viability) (DSS (dimensionless)); higher = more sensitive (stronger growth inhibition / cytotoxicity); extreme values may be limits of the assay
Please state the value as a number alone, without comment.

Q) Provide value of drug sensitivity score for this record tested with CAF#4: Nc1cc(F)ccc1NC(=O)/C=C/c1cnn(C/C=C/c2ccccc2)c1 [RGFP966] (tested concentration range 1-10000 nM)
A) 3.3

Q) Hi! What's the reported drug sensitivity score for CC/C(=C(\c1ccccc1)c1ccc(OCCN(C)C)cc1)c1ccccc1 [Tamoxifen] (tested concentration range 1-10000 nM) on CAF#4?
A) 1.1

Q) Given the entry CC1(C)CC[C@]2(NC(=O)C(C)(F)F)CC[C@]3(C)[C@H](C(=O)C=C4[C@@]5(C)C=C(C#N)C(=O)C(C)(C)[C@@H]5CC[C@]43C)[C@@H]2C1 [Omaveloxolone] (tested concentration range 1-10000 nM) , what drug sensitivity score was observed with CAF#4?
A) 17

----------
System: CAF#5 (primary prostate cancer-associated fibroblasts of myCAF-like type)
Assay: drug sensitivity score (DSS2, normalised partial AUC of dose-response, 72 h CellTiter-Glo viability) (DSS (dimensionless)); higher = more sensitive (stronger growth inhibition / cytotoxicity); extreme values may be limits of the assay
Quick reference for drug sensitivity score among some compounds
Kindly provide the number alone.

Sample answers from the record:
1. CC1(C)OCCn2c1nc1c(N3CCOCC3)nc(-c3cnc(N)nc3)nc12 [Paxalisib] (tested concentration range 1-10000 nM)
18.3
2. CN1CCN(CCOc2cc(OC3CCOCC3)c3c(Nc4c(Cl)ccc5c4OCO5)ncnc3c2)CC1 [Saracatinib] (tested concentration range 1-10000 nM)
8.2

Okay, next one:
Q) Which drug sensitivity score is listed for COc1cc(N2CCN(C)CC2)ccc1Nc1nccc(-c2cn(C)c3cnccc23)n1 [AZ191] (tested concentration range 1-10000 nM) ?
A) 4.6

----------
# Lookup of reported drug sensitivity score keyed by entry
System: CAF#4
Assay: drug sensitivity score (DSS2, normalised partial AUC of dose-response, 72 h CellTiter-Glo viability) (DSS (dimensionless)); higher = more sensitive (stronger growth inhibition / cytotoxicity); extreme values may be limits of the assay
Number, no unit, nothing else.

Below: 3 compounds and their reported drug sensitivity score.
1) COc1cc(C(=O)O)ccc1NC(=O)[C@@H]1N[C@@H](CC(C)(C)C)[C@](C#N)(c2ccc(Cl)cc2F)[C@H]1c1cccc(Cl)c1F [Idasanutlin] (tested concentration range 1-10000 nM)
11.5
2) C[C@]1(c2nc3c(C(N)=O)cccc3[nH]2)CCCN1 [Veliparib] (tested concentration range 1-10000 nM)
0
3) C[C@@H]1COCCN1c1cc(C2([S@](C)(=N)=O)CC2)nc(-c2cc[nH]c3nccc2-3)n1 [Ceralasertib] (tested concentration range 2.5-25000 nM)
8

Q) Consider the compound Cc1cc(-c2nc(-c3ccc(OC(F)(F)F)cc3)no2)nn1Cc1ccnc(N2CCN(C3CC3)CC2)c1 [BAY 87-2243] (tested concentration range 0.1-1000 nM) and give its measured drug sensitivity score.
A) 0

Q) May I ask what drug sensitivity score has been recorded for Cc1ccc(C(=O)Nc2cccc(C(F)(F)F)c2)cc1Nc1nc(-c2cccnc2)nc2c1cnn2C [NVP-BHG712] (tested concentration range 1-10000 nM) ?
A) 1.6

----------
List of drug sensitivity score values.
System: CAF#3 (primary prostate cancer-associated fibroblasts of myCAF-like type)
Assay: drug sensitivity score (DSS2, normalised partial AUC of dose-response, 72 h CellTiter-Glo viability) (DSS (dimensionless)); higher = more sensitive (stronger growth inhibition / cytotoxicity); extreme values may be limits of the assay
Form field (numeric): enter value without unit.

Example entries and their recorded answers appear below.
1) CC[C@@](C)(Nc1ccnc(-c2c[nH]c3ncccc23)n1)C(=O)NCC(F)(F)F [Decernotinib] (tested concentration range 1-10000 nM)
0.5
2) Cc1cc(OCc2nnc(SC3CCCC3)n2-c2cccnc2)ccc1-c1ccc(S(C)(=O)=O)cc1 [NMS-873] (tested concentration range 1-10000 nM)
8
3) O=S(=O)(c1cccc2c(O)nccc12)N1CCCNCC1 [Hydroxyfasudil] (tested concentration range 1.9-19000 nM)
0
4) CO[C@H]1C(=O)[C@]2(C)[C@@H](OC)C[C@H]3OC[C@@]3(OC(C)=O)[C@H]2[C@H](OC(=O)c2ccccc2)[C@]2(O)C[C@H](OC(=O)[C@H](O)[C@@H](NC(=O)OC(C)(C)C)c3ccccc3)C(C)=C1C2(C)C [Cabazitaxel] (tested concentration range 0.1-1000 nM)
14.2

For the next question, use this molecule.
Q) CAF#3 / drug sensitivity score / NS(=O)(=O)NCCNc1nonc1/C(=N/O)Nc1ccc(F)c(Br)c1 [Epacadostat] (tested concentration range 1-10000 nM) : value?
A) 0

----------
System: CAF#7 (primary prostate cancer-associated fibroblasts of myCAF-like type)
Test: drug sensitivity score (DSS2, normalised partial AUC of dose-response, 72 h CellTiter-Glo viability) (DSS (dimensionless)); higher = more sensitive (stronger growth inhibition / cytotoxicity); extreme values may be limits of the assay
result-type: drug sensitivity score
Respond numerically, and do not add a unit to the figure.

Here is how some molecules turned out for drug sensitivity score.
1. COC[C@H](NC(=O)c1cnc(C)s1)C(=O)N[C@@H](COC)C(=O)N[C@@H](Cc1ccccc1)C(=O)[C@@]1(C)CO1 [Oprozomib] (tested concentration range 0.2-2500 nM)
9.7
2. O=C(Nc1cccc(NC(=O)c2cccc(O)c2O)c1)c1cccc(O)c1O [MST-312] (tested concentration range 1-10000 nM)
11.6
3. COc1cc(OC)cc(N(CCNC(C)C)c2ccc3ncc(-c4cnn(C)c4)nc3c2)c1 [Erdafitinib] (tested concentration range 0.1-1000 nM)
15
4. O=C1Cc2cc(C(=O)NC3C[C@H]4CC[C@@H](C3)N4S(=O)(=O)CC3CCN(CCCC(F)(F)F)CC3)c(Cl)cc2N1 (stereo partly specified) (tested concentration range 1-10000 nM)
0
5. CCCCOc1nc(N)c2c(n1)N(Cc1cccc(CN3CCCC3)c1)CC(=O)N2 [Vesatolimod] (tested concentration range 1-10000 nM)
0

Kindly review the next molecule as well.
Q) Query the reported drug sensitivity score for CAF#7; item: Cc1c(Cn2c(C)nc3c(C(=O)O)cc(N4CCOCC4)cc32)cccc1C(F)(F)F (tested concentration range 1-10000 nM)
A) 5.1

----------
System: CAF#4
Test: drug sensitivity score (DSS2, normalised partial AUC of dose-response, 72 h CellTiter-Glo viability) (DSS (dimensionless)); higher = more sensitive (stronger growth inhibition / cytotoxicity); extreme values may be limits of the assay
result-type: drug sensitivity score
Reply: number alone, nothing else.

1) Cc1ccc(-c2cc(C(F)(F)F)nn2-c2ccc(S(N)(=O)=O)cc2)cc1 [Celecoxib] (tested concentration range 1-10000 nM)
0
2) C[C@@H](Oc1cc(-c2cnn(C3CCNCC3)c2)cnc1N)c1c(Cl)ccc(F)c1Cl [Crizotinib] (tested concentration range 0.1-1000 nM)
0
3) N#Cc1ccc(COC[C@H]2O[C@@H](n3c(NCc4ccc(Cl)c(Cl)c4)nc4c(N)ncnc43)[C@H](O)[C@@H]2O)cc1 (tested concentration range 1-10000 nM)
5.7
4) C[C@H]1O[C@@H](O[C@H]2[C@@H](O)C[C@H](O[C@H]3[C@@H](O)C[C@H](O[C@H]4CC[C@@]5(C)[C@H](CC[C@@H]6[C@@H]5C[C@@H](O)[C@]5(C)[C@@H](C7=CC(=O)OC7)CC[C@]65O)C4)O[C@@H]3C)O[C@@H]2C)C[C@H](O)[C@@H]1O [Digoxin] (tested concentration range 0.1-1000 nM)
19.4
5) CC[C@]12C=CCN3CC[C@@]4(c5cc([C@@]6(C(=O)OC)C[C@@H]7C[C@@H](C(C)(F)F)CN(Cc8c6[nH]c6ccccc86)C7)c(OC)cc5N(C)[C@H]4[C@@](O)(C(=O)OC)[C@@H]1OC(C)=O)[C@@H]32 [Vinflunine] (tested concentration range 0.1-1000 nM)
0.1
6) CNc1nc(-c2ccc3c(N)n[nH]c3c2)cc(N2C[C@@H](C(=O)NC3CCCCC3)CC[C@H]2C)n1 (tested concentration range 1-10000 nM)
2.4
7) Cc1ccc(C(=O)N(CCCN)[C@@H](c2oc3cc(Cl)ccc3c(=O)c2Cc2ccccc2)C(C)C)cc1 (tested concentration range 0-100 nM)
2.5
8) CC[C@]1(O)C[C@@H]2CN(CCc3c([nH]c4ccccc34)[C@@](C(=O)OC)(c3cc4c(cc3OC)N(C)[C@H]3[C@@](O)(C(=O)OC)[C@H](OC(C)=O)[C@]5(CC)C=CCN6CC[C@]43[C@@H]65)C2)C1 [Vinblastine] (tested concentration range 0.1-1000 nM)
3.6
9) C/C=C1\NC(=O)[C@H]2CSSCC/C=C/[C@H](CC(=O)N[C@H](C(C)C)C(=O)N2)OC(=O)[C@H](C(C)C)NC1=O [Romidepsin] (tested concentration range 0.1-1000 nM)
21.4
10) COc1cc([C@@H]2c3cc4c(cc3[C@@H](O[C@@H]3O[C@@H]5CO[C@@H](c6cccs6)O[C@H]5[C@H](O)[C@H]3O)[C@H]3COC(=O)[C@H]23)OCO4)cc(OC)c1O [Teniposide] (tested concentration range 1-10000 nM)
0

Q) Query drug sensitivity score on CAF#4 for Nc1nc(Cl)nc2c1ncn2[C@H]1C[C@H](O)[C@@H](CO)O1 [Cladribine] (tested concentration range 0.1-1000 nM)
A) 0

Q) GET /values?readout=drug sensitivity score&system=CAF#4&item= CC[C@@]1(O)C(=O)OCc2c1cc1n(c2=O)Cc2cc3c(CN(C)C)c(O)ccc3nc2-1 [Topotecan] (tested concentration range 1-10000 nM)
A) 8.1

Q) Lookup: drug sensitivity score / CAF#4 / CC1=C(/C=C/C(C)=C/C=C/C(C)=C/C(=O)O)C(C)(C)CCC1 [Tretinoin] (tested concentration range 1-10000 nM)
A) 0

Q) Param readout = drug sensitivity score; param system = CAF#4; param query = Clc1ccccc1C(c1ccccc1)(c1ccccc1)n1cccn1 [TRAM-34] (tested concentration range 0.1-1000 nM) ; response: value
A) 0
